Data origin, for the record: PubChem BioAssay (NCI)

tested on: NCI-H522 lung; assay: NCI-60 one-dose screen, 48 h (100 = growth as untreated, 0 = no growth, -100 = all killed); settings: 10 µM unless noted
About 83,000 compounds went through this panel and 20% of them were active in at least one assay; those are over-represented in the sample as a whole.
Each record here notes measured growth.

[
  {
    "molecule": "CCCC1CCCCN1C(=O)OCC(C)C (stereo not drawn)",
    "experimental target": "NCI-H522 lung",
    "growth, %": 99.4
  },
  {
    "molecule": "CN1CCN(CC#CCn2c3c(c4ccccc42)C[C@]2(C)[C@H]4CC[C@@H]5[C@H]6[C@H]7OC(=O)[C@@]6(CCC7(C)C)CC[C@@]5(C)[C@]4(C)CC[C@H]2C3(C)C)CC1",
    "experimental target": "NCI-H522 lung",
    "growth, %": 102
  },
  {
    "molecule": "Nc1c2c(nc3ccc(Cl)cc13)CC(c1ccccc1)CC2=O (stereo not drawn)",
    "experimental target": "NCI-H522 lung",
    "growth, %": 41.1
  },
  {
    "molecule": "CCN1CCN(c2nc(C)cc(N(CCCNc3ccnc4cc(Cl)ccc34)Cc3ccco3)n2)CC1",
    "experimental target": "NCI-H522 lung",
    "growth, %": 71.6
  },
  {
    "molecule": "Cc1csc(Nc2nc(-c3ccc(Cl)cc3)nc(C(Cl)(Cl)Cl)n2)n1",
    "experimental target": "NCI-H522 lung",
    "growth, %": 92.8
  },
  {
    "molecule": "Cc1cc(N2CCCCC2)nc(N(CCNc2ccnc3cc(Cl)ccc23)Cc2ccco2)n1",
    "experimental target": "NCI-H522 lung",
    "growth, %": 19.1
  },
  {
    "molecule": "Clc1ccc(Cn2cc(-c3nc4ccc(Br)nc4n3Cc3ccc(Cl)cc3)c3cccnc32)cc1",
    "experimental target": "NCI-H522 lung",
    "growth, %": 70
  },
  {
    "molecule": "C=C(C)[C@@H]1CC[C@]2(/C=N/Nc3ccncc3)CC[C@]3(C)[C@H](CC[C@@H]4[C@@]5(C)CCCNC(C)(C)[C@@H]5CC[C@]43C)[C@@H]12",
    "experimental target": "NCI-H522 lung",
    "growth, %": 94.8
  }
]
